This collection of values is drawn from patent US20260242419A1.

target.entity: Recombinant human IL-1β (BioLegend 579404) (human, UniProt P01584 117-269)
test.method.notes: cell-based or functional assay
Starred links: 1 amine or outer side, 2 acyl side, 3 side chain; linkers in the order of their positions; H or OH if unused. Non-standard residues stand in square brackets, D forms with d. No end group written: not given here. dProc3CH24Pal = (2R,3S)-3-(4-pyridylmethyl)pyrrolidine-2-carboxylic acid, O=C([C@H]1[C@@H](Cc2ccncc2)CCN1[*:1])[*:2]; dPro(4R-(4-pyridylmethyl)) = O=C(O)[C@H]1C[C@@H](Cc2ccncc2)CN1; Trp(βS-Me,4-F) = C[C@@H](c1c[nH]c2cccc(F)c12)[C@H](N)C(=O)O; Bip(4'-COOH) = N[C@@H](Cc1ccc(-c2ccc(C(=O)O)cc2)cc1)C(=O)O; Ala(1-bicyclo(1.1.1)pentyl) = N[C@@H](CC12CC(C1)C2)C(=O)O; Ala(pyrimidin-5-yl) = N[C@@H](Cc1cncnc1)C(=O)O; Phe(4-COOH) = N[C@@H](Cc1ccc(C(=O)O)cc1)C(=O)O; Pro(cis-4-F) = O=C(O)[C@@H]1C[C@H](F)CN1; Dap(CONH2) = NC(=O)NC[C@H](N)C(=O)O; cisHyp = O=C(O)[C@@H]1C[C@H](O)CN1; d(αMeD) = C[C@@](N)(CC(=O)O)C(=O)O; h4Pal = N[C@@H](CCc1ccncc1)C(=O)O; 4Pal = N[C@@H](Cc1ccncc1)C(=O)O; Dab = NCC[C@H](N)C(=O)O; Aib = CC(C)(N)C(=O)O
measurement.kind: MRC5 IC50 (nM)
Return type: number; implicit unit nM.

Problem: Which value of MRC5 IC50 has been reported for [Bip(4'-COOH)][4Pal][Phe(4-COOH)]G[Pro(cis-4-F)][Trp(βS-Me,4-F)][Aib]SW[Aib][dD]Q[Dab]G[dProc3CH24Pal] (lactam (positions not given here); also: macrolactam, ring places not given here) [SEQ ID NO: 234] in the records?
Solution: 0.024

Problem: What value of measured MRC5 IC50 is listed for [Bip(4'-COOH)][4Pal][Phe(4-COOH)]G[Pro(cis-4-F)][Trp(βS-Me,4-F)][Aib]SW[d(αMeD)][h4Pal]Q[Dap(CONH2)]G[dProc3CH24Pal] (lactam (positions not given here); also: macrolactam, ring places not given here) [SEQ ID NO: 223] ?
Solution: 0.027

Problem: Reported MRC5 IC50, binder cyclo([Bip(4'-COOH)][Ala(1-bicyclo(1.1.1)pentyl)][Phe(4-COOH)]G[cisHyp][Trp(βS-Me,4-F)][Aib]SW[d(αMeD)][Ala(pyrimidin-5-yl)]Q[Dab]G[dPro(4R-(4-pyridylmethyl))]) (ring closure inferred) [SEQ ID NO: 160] : ____
Solution: 0.023
